TARGET: Protein AF-9 (Homo sapiens)
PROCEDURE SUMMARY: MLL-AF4/AF9 protein interaction blockers – biochemical, AlphaScreen, biotin-AF4 peptide, FLAG-AF9, single point, primary screen (AID 651704);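 also: 0% = plate neutral control median and 100% = total signal loss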
RUN PARAMETERS: biotin-AF4 peptide binding to FLAG-AF9, at 10 µM
Out of some 350,000 compounds screened, about 1,600 (0.46%) were called active.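 The calls were made as follows: active = every replicate reaching a set inhibition limit, whatever the replicate mean (cut at about 25% in these data); inconclusive = mean inhibition reaches that limit but some replicates miss it; inactive = the rest.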 For the sample, actives were picked, then their nearest neighbours and some compounds at random.
Pick from active, inactive when you respond.

Completed entries (count: 4):
Cc1ncoc1C(=O)NCC1=C(c2cccc3ccccc23)C[C@@H]2CC[C@H]1N2Cc1ccco1	inactive
Cc1cc2ccccn2c1C(C[N+](=O)[O-])c1c(F)cccc1Cl (stereo not given)	active
CCOC(=O)[C@]12Cc3cc(OC)ccc3[C@H]1N(C(C)C)C(=O)c1ccccc12	inactive
COC(=O)[C@H]1[C@H](CO)[C@H]2Cn3c(ccc(-c4ccccc4F)c3=O)[C@@H]1N2C(=O)C1CCC1	inactive

Would you kindly look at the next entry?
How was O=c1[nH]c2ccccc2n1C1CCN(C(c2ccccc2)c2nnnn2Cc2ccccc2)CC1 (stereo not given) classified in this test? inactive

* * *

TARGET: Protein AF-9 (Homo sapiens) (UniProt P42568)
Sequence (P42568 whole entry, looked up): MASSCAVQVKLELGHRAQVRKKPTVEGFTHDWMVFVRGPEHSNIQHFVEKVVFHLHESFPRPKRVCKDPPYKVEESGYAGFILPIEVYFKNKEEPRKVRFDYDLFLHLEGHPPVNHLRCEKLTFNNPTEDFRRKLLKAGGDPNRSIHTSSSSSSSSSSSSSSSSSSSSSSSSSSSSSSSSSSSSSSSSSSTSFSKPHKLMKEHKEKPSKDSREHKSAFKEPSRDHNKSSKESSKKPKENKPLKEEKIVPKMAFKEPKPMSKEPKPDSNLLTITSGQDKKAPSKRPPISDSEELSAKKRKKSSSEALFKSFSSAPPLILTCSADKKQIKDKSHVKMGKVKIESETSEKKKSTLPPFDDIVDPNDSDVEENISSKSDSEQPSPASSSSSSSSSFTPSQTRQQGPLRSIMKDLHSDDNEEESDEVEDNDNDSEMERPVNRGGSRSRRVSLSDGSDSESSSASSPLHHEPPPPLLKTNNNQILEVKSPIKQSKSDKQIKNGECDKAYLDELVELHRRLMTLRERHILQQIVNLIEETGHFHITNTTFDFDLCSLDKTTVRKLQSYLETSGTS
PROCEDURE SUMMARY: MLL-AF4/AF9 protein interaction blockers – biochemical, AlphaScreen, biotin-AF4 peptide, FLAG-AF9, single point, primary screen (AID 651704);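 also: 0% = plate neutral control median and 100% = total signal loss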
RUN PARAMETERS: biotin-AF4 peptide binding to FLAG-AF9, at 10 µM, hits give high values
In all, about 350,000 compounds went through this assay and about 1,600 (0.46%) were called active. The sample as a whole holds a higher share of actives than the screen did.
EXPERIMENTAL READOUT: inhibition (%)
Answers are plain numbers, in %.

I need inhibition for every entry listed below, if you could help.
1. O=C(O)COc1ccccc1/C=C1\C(=O)NC(=O)N(CCC2=CCCCC2)C1=O
2. COC(=O)C1=C(c2ccc(OCc3ccccc3)cc2)C[C@@H]2CC[C@H]1N2C(=O)NCc1ccc(Cl)cc1
3. CC(C)CN1Cc2cc(N3CCCCC3)ccc2-n2nncc2C1

1: 51.4; 2: -0.419; 3: 6.47

I need inhibition for every entry listed below, if you could help.
1. O=c1[nH]c2ccccc2n1C1CCN(C(c2ccnc3ccccc23)c2nnnn2Cc2ccccc2)CC1 (stereo not given)
2. COc1ccc2c(c1)NP(=S)(c1ccccc1)N2 (stereo not given)
3. C[C@@H]1CN([C@H](C)CO)C(=O)CCCn2cc(nn2)CO[C@@H]1CN(C)C(=O)Oc1cccc2ccccc12
4. O=C1NC(=O)N(Cc2ccco2)C(=O)/C1=C\c1cccn1CCOc1ccccc1

1: -0.349; 2: -0.621; 3: -0.246; 4: -1.69

I need inhibition for every entry listed below, if you could help.
1. CCn1cc(CN2CCCC(C(=O)c3cccc(C(F)(F)F)c3)C2)cn1 (stereo not given)
2. CCOc1cccc(=NC2CCCCC2)c2c(C)[nH]c(C)c12
3. CCC1(C)CC(CCNCc2ccc(N(C)C)cc2)(c2ccc(F)cc2)CCO1 (stereo not given)

[0.062, 31.5, 28.4]
